# targetEntity: PHD2181-417 (Homo sapiens, UniProt Q9GZT9)
# Construct: histidine tag (N, cleaved yes); Smt3 (SUMO) tag (N, cleaved yes); made in house; host or cells: E. coli BL21 (pBAD vector)
# Sequence (Q9GZT9 181-417): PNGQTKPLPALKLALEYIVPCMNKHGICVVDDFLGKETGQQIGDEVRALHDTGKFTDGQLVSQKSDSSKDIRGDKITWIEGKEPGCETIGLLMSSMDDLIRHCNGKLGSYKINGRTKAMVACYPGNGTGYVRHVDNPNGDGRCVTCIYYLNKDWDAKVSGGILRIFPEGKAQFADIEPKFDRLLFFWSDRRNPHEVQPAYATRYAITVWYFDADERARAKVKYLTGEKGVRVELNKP
# testProtocol: PHD enzyme activity assay ([14C]-succinic acid production)
# Format: biochemical
# conditionsUsed: inhibition of PHD2181-417 activity; HIF-1α peptide 10 μM, [5-14C]-2-oxoglutaric acid, 10 minutes; read-out: Enzyme pIC50 (converted)
Hi all, reminder that labels come from IC50, split as low (below 0.3 µM), mid (0.3 µM to below 5 µM), high (5 µM or more)

>>> qualitativelabel("O=C(O)CNC(=O)c1nc2cc(I)ccc2[nH]1")
"high"
>>> qualitativelabel("O=C(O)c1cnn(-c2nc3c(Cl)cc(C(F)(F)F)cc3[nH]2)c1")
"low"
>>> qualitativelabel("O=C(O)CNC(=O)c1nc2cc(-c3cccc(OCc4ccc(Cl)cc4)c3)ccc2[nH]1")
"mid"

Input: For this compound, which bin applies? `Cc1cc2nc(-n3cc(C(=O)O)cn3)[nH]c2cc1C`
Output: mid

Input: Which class holds `O=C(O)c1cnn(-c2nc3cc(-c4ccc(O)cc4)ccc3[nH]2)c1` ?
Output: low

Input: Into which category would you place `O=C(O)c1cnn(-c2nc3cc(-c4ccc(Cl)c(Cl)c4)ccc3[nH]2)c1` ?
Output: low

Input: Each compound maps to one class by IC50. Which class for O=C(NC(CO)C(=O)O)c1nc2ccccc2[nH]1 (stereo in doubt) ?
Output: high

###

# targetEntity: PHD2181-417 (Homo sapiens, UniProt Q9GZT9)
# Construct: histidine tag (N, cleaved yes); Smt3 (SUMO) tag (N, cleaved yes); made in house; host or cells: E. coli BL21 (pBAD vector)
# testProtocol: PHD enzyme activity assay ([14C]-succinic acid production);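 further: enzyme expressed in E. coli BL21, assayed in Tris-HCl pH 7.5 with catalase, DTT and ascorbate, [14C]-succinic acid beta-counted after DNP precipitation of residual 2-oxoglutarate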
# Type: biochemical
# conditionsUsed: inhibition of PHD2181-417 activity; HIF-1α peptide 10 μM, [5-14C]-2-oxoglutaric acid, 10 minutes; read-out: Enzyme pIC50 (converted)
The following molecules are listed with their measured log10 IC50 values.
// do not treat as linear: log10 of IC50, unit µM

Sample answers from the record:
>>> val("O=C(O)CNC(=O)c1nc2ccc(NCc3ccccc3)cc2[nH]1 [Example 31]")
0.70
>>> val("O=C(O)CNC(=O)c1nc2cc(-c3cccc(OCc4ccccc4F)c3)ccc2[nH]1 [Example 17]")
0.70
>>> val("O=C(O)c1cnn(-c2nc3cc(-c4cccc(OCc5cccc(Cl)c5)c4)ccc3[nH]2)c1 [Example 43]")
-1.50

Input: Would you mind telling me what log10 IC50 value was observed for Cc1nn(-c2nc3cc(Br)ccc3[nH]2)c(C)c1C(=O)O [Example 57] ?
Output: 1.80

Input: Requested field: log10 IC50. Item: O=C(O)CNC(=O)c1nc2cc(-c3cccc(OCc4ccccc4Cl)c3)ccc2[nH]1 [Example 14]
Output: 0.40

Input: For the molecule O=C(O)CNC(=O)c1nc2ccc([N+](=O)[O-])cc2[nH]1 [Example 5] , what log10 IC50 is on record?
Output: 0.70

Input: Request the reported log10 IC50 associated with O=C(O)CNC(=O)c1nc2cc(-c3cnc4ccccc4c3)ccc2[nH]1 [Example 20]
Output: 0.20

Input: Which log10 IC50 value is on record for O=C(O)c1cnn(-c2nc3cc(Cl)c(Cl)cc3[nH]2)c1 [Example 33] ?
Output: -1.00

The origin of these recorded values is patent US20150284335A1.
